Hello, the source for this data is patent US10251952B2, in case you need it.

- test_target: human tau(pS422) (Homo sapiens, UniProt P10636, S739X)
- experiment_summary: BIAcore kinetic screening and kinetic rates of humanized VH/VL combinations
- Format: binding
- protocol_conditions: 25 °C; VH14 or VH20 with VL variants
Listing of entries alongside the reported t/2 diss.
Kindly provide the numeric value in min only, without the unit symbol.

| molecule | u | recorded_value |
| --- | --- | --- |
| VH14 with VL09: anti-human tau(pS422) antibody; VH SEQ ID NO: 50, VL SEQ ID NO: 33 (antibody, V domains shown, humanized sequence) VH: QQLVESGGGLVQPGGSLRLSCAASGFSLSSNAINWVRQAPGKGLEWVGYIAVSGNTYYASWAKGRFTISRDNSKNTLYLQMNSLRAEDTAVYYCGKSNIWGPGTLVTVSS VL: DIQMTQSPSTLSASVGDRVTITCRASQSVRTNKLAWYQQKPGKAPKRLIYSASTLESGVPSRFSGSGSGTEFTLTISSLQPDDFATYYCLGYFDCSIADCVAFGGGTKVEIK | min | 5 |

Lab note: next molecule to report on.
Please indicate t/2 diss recorded for VH14 with VL22: anti-human tau(pS422) antibody; VH SEQ ID NO: 50, VL SEQ ID NO: 17 (antibody, V domains shown, humanized sequence) VH: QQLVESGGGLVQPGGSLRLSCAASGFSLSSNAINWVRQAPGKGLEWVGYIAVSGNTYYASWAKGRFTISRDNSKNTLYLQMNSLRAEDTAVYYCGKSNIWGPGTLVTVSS VL: AQVMTQSPSSLSASVGDRVTITCRSSQSVRTNRLAWFQQKPGQPPKRLIYSASTLDYGVPSRFSGSGSGTEFTLTISSLQPEDFATYYCLGYFDSSADIVAFGGGTKVEIK
4
